Target: T1, human CDH6 with EC1 removed, on HEK293T cells (HEK293T-hCDH6-EC1 deletion) (human, UniProt P55285 160-790)
T1 construct: Signal peptide not removed here
T1 sequence: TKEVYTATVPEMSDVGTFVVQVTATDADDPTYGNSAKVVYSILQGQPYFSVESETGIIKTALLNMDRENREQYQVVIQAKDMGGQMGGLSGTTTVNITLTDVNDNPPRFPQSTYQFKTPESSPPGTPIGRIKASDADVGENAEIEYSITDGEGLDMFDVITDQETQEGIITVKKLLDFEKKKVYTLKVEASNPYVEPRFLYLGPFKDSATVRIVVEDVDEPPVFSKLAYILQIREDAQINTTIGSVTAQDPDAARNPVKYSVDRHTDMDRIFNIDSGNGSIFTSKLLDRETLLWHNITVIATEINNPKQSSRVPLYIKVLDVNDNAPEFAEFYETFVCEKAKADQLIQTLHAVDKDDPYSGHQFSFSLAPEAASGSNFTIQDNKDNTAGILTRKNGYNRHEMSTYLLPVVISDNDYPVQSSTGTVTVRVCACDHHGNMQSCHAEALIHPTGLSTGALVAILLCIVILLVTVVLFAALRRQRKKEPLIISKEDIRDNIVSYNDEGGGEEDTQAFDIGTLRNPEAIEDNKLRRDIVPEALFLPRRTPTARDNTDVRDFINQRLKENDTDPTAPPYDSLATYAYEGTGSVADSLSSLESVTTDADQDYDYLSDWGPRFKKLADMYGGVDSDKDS
Test: FACS, HEK293T-hCDH6-EC1 deletion cells
readout-kind: Max MFI (MFI)
The figure you give is taken to be in MFI; do not add the unit.

Recorded results for 2 binders are shown here.
[[record]]
binder = "CHI-CDH6-4 (antibody, human IgG1, kappa, V domains shown, also called CH1-CDH6-4; chimeric antibody of murine CDH6-4) VH: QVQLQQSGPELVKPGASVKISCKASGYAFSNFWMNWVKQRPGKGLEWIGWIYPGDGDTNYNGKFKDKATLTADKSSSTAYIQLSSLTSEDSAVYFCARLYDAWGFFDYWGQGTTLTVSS VL: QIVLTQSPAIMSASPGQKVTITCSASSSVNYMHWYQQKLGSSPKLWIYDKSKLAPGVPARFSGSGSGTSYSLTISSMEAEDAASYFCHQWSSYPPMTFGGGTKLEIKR"
readout_kind = "Max MFI"
result = 10200

[[record]]
binder = "CHI-CDH6-5 (antibody, human IgG1, kappa, V domains shown, also called CH1-CDH6-5; chimeric antibody of murine CDH6-5) VH: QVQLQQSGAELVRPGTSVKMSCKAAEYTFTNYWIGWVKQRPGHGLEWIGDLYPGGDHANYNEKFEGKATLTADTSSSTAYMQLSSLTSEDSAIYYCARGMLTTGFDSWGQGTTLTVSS VL: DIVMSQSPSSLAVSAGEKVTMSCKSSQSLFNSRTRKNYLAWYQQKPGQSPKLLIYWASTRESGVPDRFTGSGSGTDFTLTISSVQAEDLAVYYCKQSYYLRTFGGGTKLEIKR"
readout_kind = "Max MFI"
result = 112


Asked: Field request: Max MFI | item: CHI-CDH6-1 (antibody, human IgG1, kappa, V domains shown, also called CHI-hCDH6-1; CH1-CDH6-1) VH: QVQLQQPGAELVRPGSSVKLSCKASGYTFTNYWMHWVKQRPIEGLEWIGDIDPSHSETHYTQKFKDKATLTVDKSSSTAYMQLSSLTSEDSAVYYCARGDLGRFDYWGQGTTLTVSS VL: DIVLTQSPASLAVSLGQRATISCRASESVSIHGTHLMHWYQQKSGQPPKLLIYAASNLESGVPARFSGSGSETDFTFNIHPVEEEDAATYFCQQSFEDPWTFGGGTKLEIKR
Given back: 84
